Entries and their measured IC50 follow.
- measurement.target: SNAP-hSPR (sepiapterin reductase, SPR) (Homo sapiens, UniProt P35270)
- Sequence (P35270 whole entry): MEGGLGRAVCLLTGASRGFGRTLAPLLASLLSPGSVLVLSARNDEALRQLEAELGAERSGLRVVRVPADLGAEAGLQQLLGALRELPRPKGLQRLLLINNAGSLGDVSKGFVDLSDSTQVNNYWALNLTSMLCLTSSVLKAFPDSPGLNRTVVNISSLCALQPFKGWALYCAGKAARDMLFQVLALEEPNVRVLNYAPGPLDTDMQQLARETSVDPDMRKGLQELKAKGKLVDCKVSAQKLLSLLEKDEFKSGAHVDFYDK

item.smiles: Cc1c(C(=O)N2CCC(c3cccc4[nH]ccc34)CC2)cnn1-c1nc2c(c(=O)[nH]1)CCC2
IC50: 3 nM
//
item.smiles: Cc1c(C(=O)N2C[C@H]3CCC[C@@H](C2)[C@@H]3CC(F)(F)F)cnn1-c1nn2cccc2c(=O)[nH]1
IC50: 1 nM
//
item.smiles: Cc1c(C(=O)N2CC3(C2)CC(F)(F)C3)cnn1-c1nn2cccc2c(=O)[nH]1
IC50: 1 nM
//
item.smiles: CCC1(C#N)CCN(C(=O)c2cnn(-c3nc4sccc4c(=O)[nH]3)c2C)CC1
IC50: 5 nM
//
item.smiles: COC(=O)c1cnn(-c2nn3c(F)ccc3c(=O)[nH]2)c1C
IC50: 3 nM
//
item.smiles: O=C(c1cnn(-c2nn3cccc3c(=O)[nH]2)c1)N1CCC2(CC1)CC2
IC50: 1 nM
//
item.smiles: CCN1CCN(C(=O)c2cnn(-c3nc(C)c(C)c(=O)[nH]3)c2C)CC1
IC50: 30 nM
//
item.smiles: Cc1c(C(=O)N2CC(c3ccncc3F)C2)cnn1-c1nn2cccc2c(=O)[nH]1
IC50: 5 nM
